Assay: Pharmacokinetic assessment of X842 in rats (IV, single oral, repeated oral)
Type: in vivo, Sprague-Dawley rats
Conditions: male, Sprague-Dawley, rat, plasma, po, 0.6 mg/kg, male rats, single oral X842 0.6 mg/kg; analyte as labelled; read-out: AUC(0–24h)
Collected AUC(0-t) values appear next to each entry.
Give the value, in units of ng·h/mL, as a plain number.

// Input: Cc1cccc(C)c1CNc1cc(C(=O)NCCOC(=O)CCCC(=O)O)cn2c(C)c(C)nc12 [X842, linaprazan glurate] . Output its AUC(0-t) only.
2.5

// Input: `Cc1cccc(C)c1CNc1cc(C(=O)NCCO)cn2c(C)c(C)nc12` . Output its AUC(0-t) only.
22.1

---

Collected AUC(0-t) values appear next to each entry.
Test: Pharmacokinetic assessment of X842 in dogs (IV, single oral, repeated oral)
Format: in vivo
Details: male, beagle, dog, plasma, po, 1.2 mg/kg, male dogs, repeat oral X842, Day 7; analyte as labelled; read-out: AUC(0-24h) Day 7
Protocol: Pharmacokinetic assessments were conducted by Shanghai Medicilon Inc. Using C18 solid-phase extraction (Shimadzu UFLC-20A, ACE 3, C18, 3.0 µm, 150 × 4.6 mm; Shimadzu, Japan) with the following conditions: mobile phase A: 1 M ammonium acetate in water, mobile phase B: 100% acetonitrile; gradient 0–5 min: 100% A, 5–30 min: 85% A, 35–63 min: 75% A, 63–65 min: 55% A, 65–70 min: 0% A, 72–87 min: 100% A; flow rate 0.7 mL/min; column temperature 30 °C ([Weidof and Covey, 1992]). […]
Give the value, in units of ng·h/mL, as a plain number.

# compound, measurement
rows = [
    ("Cc1cccc(C)c1CNc1cc(C(=O)NCCO)cn2c(C)c(C)nc12", 439),
]

// Input: Cc1cccc(C)c1CNc1cc(C(=O)NCCOC(=O)CCCC(=O)O)cn2c(C)c(C)nc12 [X842, linaprazan glurate] . Output its AUC(0-t) only.
35.4

---

Assay: Pharmacokinetic assessment of X842 in dogs (IV, single oral, repeated oral)
Type: in vivo
Conditions: beagle, dog, plasma; female dogs, single oral X842 0.3 mg/kg; analyte as labelled; read-out: t1/2 (converted)
measurement.label: half-life (min)
Give the value, in units of min, as a plain number.

// Input: Cc1cccc(C)c1CNc1cc(C(=O)NCCO)cn2c(C)c(C)nc12 [linaprazan] . Output its half-life only.
126

---

Collected AUC(0-t) values appear next to each entry.
Assay: Pharmacokinetic assessment of X842 in dogs (IV, single oral, repeated oral)
Format: in vivo
Settings: male, beagle, dog, plasma, iv, 0.3 mg/kg, male dogs, intravenous X842 0.3 mg/kg; analyte as labelled; read-out: AUC(0-24h)
Give the value, in units of ng·h/mL, as a plain number.

# molecule, units.symbol, AUC(0-t)
rows = [
    ("Cc1cccc(C)c1CNc1cc(C(=O)NCCOC(=O)CCCC(=O)O)cn2c(C)c(C)nc12 [X842, linaprazan glurate]", "ng·h/mL", 361),
]

From here, focus on the item given below.
// Input: `Cc1cccc(C)c1CNc1cc(C(=O)NCCO)cn2c(C)c(C)nc12` . Output its AUC(0-t) only.
170

---

Assay: Pharmacokinetic assessment of X842 in rats (IV, single oral, repeated oral)
Assay type: in vivo, Sprague-Dawley rats
Conditions: female, Sprague-Dawley, rat, plasma, po, 2.4 mg/kg, female rats, single oral X842, 2.4 mg/kg (third dose group); read-out: AUC(0–24h)
measurement.label: AUC(0-t)

// Input: Cc1cccc(C)c1CNc1cc(C(=O)NCCOC(=O)CCCC(=O)O)cn2c(C)c(C)nc12 [X842, linaprazan glurate] . Output its AUC(0-t) only.
310 ng·h/mL

---

Assay: Pharmacokinetic assessment of X842 in rats (IV, single oral, repeated oral)
Format: in vivo, Sprague-Dawley rats
Conditions: female, Sprague-Dawley, rat, plasma, po, female rats, single-dose oral administration; read-out: t1/2 (range over doses)
measurement.label: half-life

// Input: Cc1cccc(C)c1CNc1cc(C(=O)NCCOC(=O)CCCC(=O)O)cn2c(C)c(C)nc12 [X842, linaprazan glurate] . Output its half-life only.
2.1 to 4.1 h

---

Test: Pharmacokinetic assessment of X842 in dogs (IV, single oral, repeated oral)
Format: in vivo
Conditions: beagle, dog, plasma; female dogs, single oral X842 1.2 mg/kg; analyte as labelled; read-out: t1/2 (converted)
measurement.label: half-life

# compound, half-life
measured = [
    ("Cc1cccc(C)c1CNc1cc(C(=O)NCCO)cn2c(C)c(C)nc12", "3.2 h"),
]

// Input: Cc1cccc(C)c1CNc1cc(C(=O)NCCOC(=O)CCCC(=O)O)cn2c(C)c(C)nc12 [X842, linaprazan glurate] . Output its half-life only.
1.2 h

---

Test: Pharmacokinetic assessment of X842 in rats (IV, single oral, repeated oral)
Format: in vivo, Sprague-Dawley rats
Conditions: male, Sprague-Dawley, rat, plasma, po, 9.6 mg/kg, male rats, single oral X842 9.6 mg/kg; analyte as labelled; read-out: t1/2 (converted)
Method: Male and female Sprague-Dawley rats weighing approximately 150 g were housed individually with a 12-h light/dark cycle. Food and water were provided ad libitum, except during overnight fasting (10–16 h) prior to oral drug administration, as described previously ([Kotegawa et al., 1998]; [Kotegawa et al., 2002]). […]
measurement.label: half-life (h)
Give the value, in units of h, as a plain number.

// Input: Cc1cccc(C)c1CNc1cc(C(=O)NCCO)cn2c(C)c(C)nc12 [linaprazan] . Output its half-life only.
3.1

---

Assay: Pharmacokinetic assessment of X842 in rats (IV, single oral, repeated oral)
Format: in vivo, Sprague-Dawley rats
Conditions: female, Sprague-Dawley, rat, plasma, po, 0.6 mg/kg, female rats, single oral X842 0.6 mg/kg; analyte as labelled; read-out: AUC(0–24h)
Collected AUC(0-t) values appear next to each entry.
Give the value, in units of ng·h/mL, as a plain number.

# compound, units.symbol, measurement
records = [
    ("Cc1cccc(C)c1CNc1cc(C(=O)NCCO)cn2c(C)c(C)nc12", "ng·h/mL", 67.6),
]

From here, focus on the item given below.
// Input: Cc1cccc(C)c1CNc1cc(C(=O)NCCOC(=O)CCCC(=O)O)cn2c(C)c(C)nc12 [X842, linaprazan glurate] . Output its AUC(0-t) only.
13.8

---

Test: Pharmacokinetic assessment of X842 in rats (IV, single oral, repeated oral)
Type: in vivo, Sprague-Dawley rats
Conditions: male, Sprague-Dawley, rat, plasma, po, 9.6 mg/kg, male rats, single oral X842 9.6 mg/kg; analyte as labelled
measurement.label: Cmax (ng/mL)
Give the value, in units of ng/mL, as a plain number.

// Input: Cc1cccc(C)c1CNc1cc(C(=O)NCCO)cn2c(C)c(C)nc12 [linaprazan] . Output its Cmax only.
128

---

Collected Cmax values appear next to each entry.
Experiment: Pharmacokinetic assessment of X842 in dogs (IV, single oral, repeated oral)
Type: in vivo
Settings: beagle, dog, plasma; female dogs, intravenous X842 0.3 mg/kg; analyte as labelled

# compound, Cmax
data = [
    ("Cc1cccc(C)c1CNc1cc(C(=O)NCCO)cn2c(C)c(C)nc12", "30.6 ng/mL"),
]

From here, focus on the item given below.
// Input: Cc1cccc(C)c1CNc1cc(C(=O)NCCOC(=O)CCCC(=O)O)cn2c(C)c(C)nc12 [X842, linaprazan glurate] . Output its Cmax only.
694 ng/mL

---

Assay: Pharmacokinetic assessment of X842 in dogs (IV, single oral, repeated oral)
Assay type: in vivo
Settings: male, beagle, dog, plasma, po, 4.8 mg/kg, male dogs, single oral X842 4.8 mg/kg; analyte as labelled; read-out: AUC(0-24h)
measurement.label: AUC(0-t) (ng·h/mL)
Give the value, in units of ng·h/mL, as a plain number.

# molecule, measurement
records = [
    ("Cc1cccc(C)c1CNc1cc(C(=O)NCCOC(=O)CCCC(=O)O)cn2c(C)c(C)nc12 [X842, linaprazan glurate]", 889),
]

// Input: Cc1cccc(C)c1CNc1cc(C(=O)NCCO)cn2c(C)c(C)nc12 [linaprazan] . Output its AUC(0-t) only.
4850

---

Assay: Pharmacokinetic assessment of X842 in rats (IV, single oral, repeated oral)
Type: in vivo, Sprague-Dawley rats
Details: male, Sprague-Dawley, rat, plasma, po, 2.4 mg/kg, male rats, single oral X842 2.4 mg/kg; analyte as labelled; read-out: AUC(0–24h)
Collected AUC(0-t) values appear next to each entry.
Remember to follow the number with its unit.

# molecule, AUC(0-t)
data = [
    ("Cc1cccc(C)c1CNc1cc(C(=O)NCCOC(=O)CCCC(=O)O)cn2c(C)c(C)nc12 [X842, linaprazan glurate]", "18.3 ng·h/mL"),
]

// Input: `Cc1cccc(C)c1CNc1cc(C(=O)NCCO)cn2c(C)c(C)nc12` . Output its AUC(0-t) only.
134 ng·h/mL
